# System: Escherichia coli
# protocol_text: Antibacterial activity against efflux pump d effect ive Escherichia coli JW5503 harbouring tolC mutant assessed as minimum inhibitory concentration required for >=90% inhibition of bacterial growth by CLSI protocol based broth microdilution assay
# Type: functional
Answer each item with its documented MIC.
One number for each entry, in µM.

In [3]: df
Out[3]:
                                 cpd_smiles  target_or_test_system  measurement_name  units  numeric_readout
0  COC(=O)[C@@H](C)NC(=O)c1ccc(NC(=O)c2[nH]c(C)c(Cl)c2Cl)c(OC2CCNCC2)c1       Escherichia coli               MIC     µM             6.25
1  Cc1[nH]c(C(=O)Nc2ccc3[nH]c(C(=O)O)cc3c2)c(Cl)c1Cl       Escherichia coli               MIC     µM             12.5
2  Cc1[nH]c(C(=O)Nc2ccc(C(=O)NCC#N)cc2)c(Cl)c1Cl       Escherichia coli               MIC     µM             12.5
3  Cc1[nH]c(C(=O)Nc2ccc(-n3nn[nH]c3=O)cc2)c(Cl)c1Cl       Escherichia coli               MIC     µM             3.13
4  COC(=O)CNC(=O)c1ccc(NC(=O)c2[nH]c(C)c(Cl)c2Cl)c(O[C@H]2CCNC2)c1       Escherichia coli               MIC     µM               25

Now, please, on to the next molecule.
What value of measured MIC is listed for `COC(=O)[C@H](C)NC(=O)c1ccc(NC(=O)c2[nH]c(C)c(Cl)c2Cl)c(OC2CCNCC2)c1` ? 6.25

====

# target_or_test_system: Topoisomerase IV (Staphylococcus aureus) (UniProt P0C1U9+P0C1S7)
# protocol_text: Inhibition of Staphylococcus aureus DNA topoisomerase 4 assessed as residual activity at 1 uM using biotinylated oligonucleotide as substrate incubated for 30 mins in presence of ATP by fluorescence-based microplate reader assay relative to control
# Type: protein-complex assay
Answer each item with its documented Activity.
Answers are plain numbers, in %.

Record Activity per entry; entries follow.
1. O=C(O)CNC(=O)c1ccc(NC(=O)c2cc(Br)c(Br)[nH]2)c(OC2CCNCC2)c1
2. Cc1[nH]c(C(=O)Nc2ccc(C(=O)N[C@H](C)c3n[nH]c(=S)o3)cc2OC(C)C)c(Cl)c1Cl
3. Cc1[nH]c(C(=O)Nc2ccc(-n3nn[nH]c3=O)cc2)c(Cl)c1Cl
4. Cc1[nH]c(C(=O)Nc2ccc(C(=O)N[C@H](C)C(=O)O)cc2OC2CCN(C(=O)OC(C)(C)C)CC2)c(Cl)c1Cl
5. COC(=O)CNC(=O)c1ccc(NC(=O)c2[nH]c(C)c(Cl)c2Cl)c(O[C@H]2CCNC2)c1
6. COC(=O)[C@@H](C)NC(=O)c1ccc(NC(=O)c2[nH]c(C)c(Cl)c2Cl)c(OC2CCNCC2)c1

1. 100
2. 90
3. 85
4. 79
5. 94
6. 94

Record Activity per entry; entries follow.
1. CCn1cc(C(=O)O)c(=O)c2ccc(NC(=O)c3[nH]c(C)c(Cl)c3Cl)cc21
2. Cc1[nH]c(C(=O)Nc2ccc(C(=O)NS(C)(=O)=O)cc2)c(Cl)c1Cl

1: 100; 2: 81

====

# System: Escherichia coli
# protocol_text: Antibacterial activity against Escherichia coli ATCC 25922 assessed as bacterial growth inhibition at 50 uM incubated for 24 hrs by CLSI protocol based broth microdilution assay relative to control
# Format: functional
Answer each item with its documented inhibition at 50 µM.
Numbers only, in %.

Some solved entries appear below for comparison.
>>> print(df.to_string())
                                 cpd_smiles  numeric_readout
0  Cc1[nH]c(C(=O)Nc2ccc(C(=O)N[C@@H](C)C(=O)O)cc2OC2CCNCC2)c(Cl)c1Cl                7
1  Cc1[nH]c(C(=O)Nc2ccc(C(=O)NCC(=O)O)cc2O[C@H]2CCN(C(=O)OC(C)(C)C)C2)c(Cl)c1Cl                5
2  Cc1[nH]c(C(=O)Nc2ccc(C(=O)N[C@@H](C)C(=O)O)cc2OC2CCN(C(=O)OC(C)(C)C)CC2)c(Cl)c1Cl                2
3  Cc1[nH]c(C(=O)Nc2ccc(C(=O)NCC(=O)O)cc2OC2CCNCC2)c(Cl)c1Cl               -2
4  O=C(O)CNC(=O)c1ccc(NC(=O)c2cc(Br)c(Br)[nH]2)c(OC2CCNCC2)c1               -9
5  Cc1[nH]c(C(=O)Nc2ccc(C(=O)N[C@H](C)c3n[nH]c(=S)o3)cc2OC(C)C)c(Cl)c1Cl               21
6  COC(=O)[C@@H](C)NC(=O)c1ccc(NC(=O)c2[nH]c(C)c(Cl)c2Cl)c(OC(C)C)c1               12
7  CCn1cc(C(=O)O)c(=O)c2ccc(NC(=O)c3[nH]c(C)c(Cl)c3Cl)cc21               11
8  Cc1[nH]c(C(=O)Nc2ccc3[nH]c(C(=O)O)cc3c2)c(Cl)c1Cl                2
9  CC(C)(C)OC(=O)N1CCC(Oc2cc(C(=O)NCC(=O)O)ccc2NC(=O)c2cc(Br)c(Br)[nH]2)CC1              -14

Record inhibition at 50 µM per entry; entries follow.
1. COC(=O)[C@H](C)NC(=O)c1ccc(NC(=O)c2[nH]c(C)c(Cl)c2Cl)c(OC2CCN(C(=O)OC(C)(C)C)CC2)c1
2. COC(=O)[C@H](C)NC(=O)c1ccc(NC(=O)c2[nH]c(C)c(Cl)c2Cl)c(OC2CCNCC2)c1
3. Cc1[nH]c(C(=O)Nc2ccc(C(=O)N[C@H](C)C(=O)NN)cc2OC(C)C)c(Cl)c1Cl
4. Cc1[nH]c(C(=O)Nc2ccc(S(=O)(=O)NCC(=O)O)cc2)c(Cl)c1Cl
5. Cc1[nH]c(C(=O)Nc2ccc(-n3nn[nH]c3=O)cc2)c(Cl)c1Cl

1. 18
2. 14
3. 21
4. 7
5. 3

Record inhibition at 50 µM per entry; entries follow.
1. COC(=O)[C@@H](C)NC(=O)c1ccc(NC(=O)c2[nH]c(C)c(Cl)c2Cl)c(OC2CCN(C(=O)OC(C)(C)C)CC2)c1
2. N#CCNC(=O)c1ccc(NC(=O)c2cc(Br)c(Br)[nH]2)cc1

[18, 2]

====

# target_or_test_system: DNA gyrase (Staphylococcus aureus) (UniProt P0A0K8+P20831)
# Sequence (P0A0K8 2-644 limits assumed): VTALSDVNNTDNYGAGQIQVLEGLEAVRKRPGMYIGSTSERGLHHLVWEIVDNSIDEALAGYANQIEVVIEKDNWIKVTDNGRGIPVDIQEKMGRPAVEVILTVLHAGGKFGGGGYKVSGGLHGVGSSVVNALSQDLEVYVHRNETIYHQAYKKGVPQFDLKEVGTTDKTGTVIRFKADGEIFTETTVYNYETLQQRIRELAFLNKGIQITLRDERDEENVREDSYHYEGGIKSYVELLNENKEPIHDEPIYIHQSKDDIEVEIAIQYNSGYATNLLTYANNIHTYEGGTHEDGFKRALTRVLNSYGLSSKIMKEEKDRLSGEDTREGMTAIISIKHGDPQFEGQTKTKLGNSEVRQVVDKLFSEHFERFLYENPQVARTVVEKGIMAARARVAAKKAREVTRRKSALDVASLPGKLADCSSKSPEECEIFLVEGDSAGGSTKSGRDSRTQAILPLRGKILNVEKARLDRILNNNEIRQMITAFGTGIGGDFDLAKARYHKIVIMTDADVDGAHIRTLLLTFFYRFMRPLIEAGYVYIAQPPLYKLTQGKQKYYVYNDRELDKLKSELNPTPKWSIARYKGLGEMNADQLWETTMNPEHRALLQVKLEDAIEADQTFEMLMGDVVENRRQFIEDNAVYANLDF
# Sequence (P20831 whole entry partner): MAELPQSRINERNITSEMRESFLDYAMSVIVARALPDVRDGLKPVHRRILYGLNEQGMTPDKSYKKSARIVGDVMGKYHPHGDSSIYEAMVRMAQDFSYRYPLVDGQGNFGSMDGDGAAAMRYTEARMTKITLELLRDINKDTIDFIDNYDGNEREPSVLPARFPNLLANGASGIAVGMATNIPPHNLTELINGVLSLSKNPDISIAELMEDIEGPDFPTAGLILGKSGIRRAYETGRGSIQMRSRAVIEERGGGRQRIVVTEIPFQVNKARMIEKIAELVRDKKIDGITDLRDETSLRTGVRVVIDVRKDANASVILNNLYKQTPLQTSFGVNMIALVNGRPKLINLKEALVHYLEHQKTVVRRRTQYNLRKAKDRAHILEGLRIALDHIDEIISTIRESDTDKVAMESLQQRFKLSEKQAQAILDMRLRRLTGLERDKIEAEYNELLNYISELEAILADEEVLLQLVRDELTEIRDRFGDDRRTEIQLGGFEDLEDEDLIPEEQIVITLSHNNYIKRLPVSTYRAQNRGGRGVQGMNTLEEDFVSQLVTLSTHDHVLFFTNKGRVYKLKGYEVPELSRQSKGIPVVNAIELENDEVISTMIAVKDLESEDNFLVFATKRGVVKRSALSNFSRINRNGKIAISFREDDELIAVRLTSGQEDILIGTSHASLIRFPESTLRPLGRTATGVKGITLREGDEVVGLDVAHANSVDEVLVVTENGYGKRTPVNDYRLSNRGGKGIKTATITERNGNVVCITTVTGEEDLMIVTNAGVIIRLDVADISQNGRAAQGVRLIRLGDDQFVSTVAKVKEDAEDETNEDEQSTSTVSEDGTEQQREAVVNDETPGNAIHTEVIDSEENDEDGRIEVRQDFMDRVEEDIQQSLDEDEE
# protocol_text: Inhibition of Staphylococcus aureus DNA gyrase assessed as residual activity at 1 uM using biotinylated oligonucleotide as substrate incubated for 30 mins in presence of ATP by fluorescence-based microplate reader assay relative to control
# Format: protein-complex assay
Answer each item with its documented Activity.
Numbers only, in %.

Some solved entries appear below for comparison.
                                 cpd_smiles                     target_or_test_system  measurement_name  numeric_readout
0  CCn1cc(C(=O)O)c(=O)c2ccc(NC(=O)c3[nH]c(C)c(Cl)c3Cl)cc21  DNA gyrase (Staphylococcus aureus) (UniProt P0A0K8+P20831)          Activity               90
1  O=C(O)CNC(=O)c1ccc(NC(=O)c2cc(Br)c(Br)[nH]2)c(OC2CCNCC2)c1  DNA gyrase (Staphylococcus aureus) (UniProt P0A0K8+P20831)          Activity               67
2  Cc1[nH]c(C(=O)Nc2ccc(C(=O)N[C@@H](C)C(=O)O)cc2OC2CCN(C(=O)OC(C)(C)C)CC2)c(Cl)c1Cl  DNA gyrase (Staphylococcus aureus) (UniProt P0A0K8+P20831)          Activity               26

Now, please, on to the next molecule.
What value of measured Activity is listed for `COC(=O)[C@@H](C)NC(=O)c1ccc(NC(=O)c2[nH]c(C)c(Cl)c2Cl)c(OC2CCNCC2)c1` ? 49

====

# System: Escherichia coli
# protocol_text: Antibacterial activity against Escherichia coli ATCC 25922 assessed as bacterial growth inhibition at 50 uM incubated for 24 hrs by CLSI protocol based broth microdilution assay relative to control
# Type: functional
measurement_name: inhibition at 50 µM
Your reply should be a number followed by the unit it is expressed in.

>>> df
                                 cpd_smiles  target_or_test_system     measurement_name  result
0  COC(=O)[C@@H](C)NC(=O)c1ccc(NC(=O)c2[nH]c(C)c(Cl)c2Cl)c(OC2CCNCC2)c1       Escherichia coli  inhibition at 50 µM      8%
1  Cc1[nH]c(C(=O)Nc2ccc(C(=O)N[C@H](C)C(=O)O)cc2OC2CCN(C(=O)OC(C)(C)C)CC2)c(Cl)c1Cl       Escherichia coli  inhibition at 50 µM     -7%
2  Cc1[nH]c(C(=O)Nc2ccc(C(=O)NCC#N)cc2)c(Cl)c1Cl       Escherichia coli  inhibition at 50 µM      0%
3  CCOC(=O)c1cn(CC)c2cc(NC(=O)c3[nH]c(C)c(Cl)c3Cl)ccc2c1=O       Escherichia coli  inhibition at 50 µM     12%
4  COC(=O)CNC(=O)c1ccc(NC(=O)c2cc(Br)c(Br)[nH]2)c(OC2CCN(C(=O)OC(C)(C)C)CC2)c1       Escherichia coli  inhibition at 50 µM     -8%

Record inhibition at 50 µM per entry; entries follow.
1. CCOC(=O)C(NC(=O)c1ccc(NC(=O)c2cc(Br)c(Br)[nH]2)cc1)C(=O)OCC
2. Cc1[nH]c(C(=O)Nc2ccc(S(=O)(=O)Nc3nccs3)cc2)c(Cl)c1Cl
3. Cc1[nH]c(C(=O)Nc2ccc(C(=O)NCC(=O)O)cc2O[C@H]2CCNC2)c(Cl)c1Cl

1. 9%
2. 13%
3. 11%
